# study-target: EV-A71 2A^pro (Enterovirus A71)
# method-summary: FRET-based enzymatic assay
# Format: biochemical
# experimental-conditions: EV-A71 2A^pro IC50, no DTT
observable: log10(IC50) (log10 of the value in µM)
log10 IC50, µM

A selection of reference data follows.
compound="O=c1c2ccccc2[se]n1-c1ccccc1 [ebselen]" observable=log10(IC50) assay_result=0.77
compound="CCCCCCNC(=O)n1cc(F)c(=O)[nH]c1=O [carmofur]" observable=log10(IC50) assay_result=1.11
compound="O=c1sn(-c2cccc3ccccc23)c(=O)n1Cc1ccccc1 [tideglusib]" observable=log10(IC50) assay_result=0.53
compound="CCC[C@H](NC(=O)[C@@H]1[C@H]2CCC[C@H]2CN1C(=O)[C@@H](NC(=O)[C@@H](NC(=O)c1cnccn1)C1CCCCC1)C(C)(C)C)C(=O)C(=O)NC1CC1 [telaprevir]" observable=log10(IC50) assay_result=0.26
compound="CC(C)=CC[C@@H](O)C1=CC(=O)c2c(O)ccc(O)c2C1=O [shikonin]" observable=log10(IC50) assay_result=1.56

Lab note: next compound to report on.
Give the reported value of log10(IC50) for this record: CCN(CC)C(=S)SSC(=S)N(CC)CC [disulfiram]
1.07

* * *

# study-target: UniProt A0A097BW19
# Sequence (A0A097BW19 1550-1732): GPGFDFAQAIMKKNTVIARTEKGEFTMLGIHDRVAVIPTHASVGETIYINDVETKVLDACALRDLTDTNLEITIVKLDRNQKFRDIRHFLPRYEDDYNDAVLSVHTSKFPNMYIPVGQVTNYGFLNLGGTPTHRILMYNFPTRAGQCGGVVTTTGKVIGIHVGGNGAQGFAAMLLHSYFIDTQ
# method-summary: biochemical
# experimental-conditions: EV-D68 3C^pro IC50, no DTT
In this section we review reported pIC50 values for a set of compounds.
Lab note — pIC50 values are minus log10 of concentrations in M.

A selection of reference data follows.
compound="CCN(CC)C(=S)SSC(=S)N(CC)CC [disulfiram]" study_target="UniProt A0A097BW19" assay_result=6.22
compound="O=c1c2ccccc2[se]n1-c1ccccc1 [ebselen]" study_target="UniProt A0A097BW19" assay_result=7.00
compound="CC(C)=CC[C@@H](O)C1=CC(=O)c2c(O)ccc(O)c2C1=O [shikonin]" study_target="UniProt A0A097BW19" assay_result=5.92
compound="CCCCCCNC(=O)n1cc(F)c(=O)[nH]c1=O [carmofur]" study_target="UniProt A0A097BW19" assay_result=6.52

Provide pIC50, system UniProt A0A097BW19, entry O=c1sn(-c2cccc3ccccc23)c(=O)n1Cc1ccccc1 [tideglusib]
6.22

* * *

# study-target: UniProt P0DTD1
# Format: binding
# experimental-conditions: with 4 mM DTT; 10-40 μM drug
observable: Ligand binding to M^pro dimer

structure_notation=CC(C)=CC[C@@H](O)C1=CC(=O)c2c(O)ccc(O)c2C1=O observable="Ligand binding to M^pro dimer" assay_result="completely disrupted"
structure_notation=CCN(CC)C(=S)SSC(=S)N(CC)CC observable="Ligand binding to M^pro dimer" assay_result="completely disrupted"

* * *

# study-target: UniProtKB A0A097BW19
# Sequence (A0A097BW19 863-1009): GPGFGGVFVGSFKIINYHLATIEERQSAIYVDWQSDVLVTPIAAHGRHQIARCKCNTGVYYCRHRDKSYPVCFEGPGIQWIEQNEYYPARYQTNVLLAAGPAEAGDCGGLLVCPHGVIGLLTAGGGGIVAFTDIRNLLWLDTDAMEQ
# method-summary: FRET-based enzymatic assay
# Assay type: biochemical
# experimental-conditions: EV-D68 2A^pro IC50, no DTT
observable: IC50 (µM)
Write down the numeric answer in µM and omit the unit.

structure_notation=CCCCCCNC(=O)n1cc(F)c(=O)[nH]c1=O display_unit=µM assay_result=6.4
structure_notation=O=c1c2ccccc2[se]n1-c1ccccc1 display_unit=µM assay_result=3.6
structure_notation=CCC[C@H](NC(=O)[C@@H]1[C@H]2CCC[C@H]2CN1C(=O)[C@@H](NC(=O)[C@@H](NC(=O)c1cnccn1)C1CCCCC1)C(C)(C)C)C(=O)C(=O)NC1CC1 display_unit=µM assay_result=0.1
structure_notation=CCN(CC)C(=S)SSC(=S)N(CC)CC display_unit=µM assay_result=3.5
structure_notation=CC(C)=CC[C@@H](O)C1=CC(=O)c2c(O)ccc(O)c2C1=O display_unit=µM assay_result=37

Lab note: next compound to report on.
Give the reported value of IC50 for this record: O=c1sn(-c2cccc3ccccc23)c(=O)n1Cc1ccccc1
1.3
